FYI, the data here is from patent US20250066745A1.

The entries below come with measured Activity of mutant relative to wild-type Gaussia luciferase without the signal peptide values attached.
assay_comment: Luminescence activity assay of purified Gaussia luciferase mutants on coelenterazine derivative ZS2
Format: biochemical
Design: key: ratio of mutant luminescence intensity to wild-type Gaussia luciferase
study_conditions: Substrate ZS2 (Table 16)
The answer should be a number; do not append a unit.

Below: 3 molecules and their reported Activity of mutant relative to wild-type Gaussia luciferase without the signal peptide.
Q) I am curious: what Activity of mutant relative to wild-type Gaussia luciferase without the signal peptide value has been reported for F26R N27D V29E A30G V31I A32D S33N A36N T37A L40R: Gaussia luciferase mutant (protein, SIGNAL (1)..(17), Gaussia luciferase mutant) MGVKVLFALICIAVAEAKPTENNEDRDIEGIDNNFNATDRDADRGKLPGKKLPLEVLKEMEANARKAGCTRGCLICLSHIKCTPKMKKFIPGRCHTYEGDKESAQGGIGEAIVDIPEIPGFKDLEPMEQFIAQVDLCVDCTTGCLKGLANVQCSDLLKKWLPQRCATFASKIQGQVDKIKGAGGD ?
A) 0.044

Q) Do the same for F26I N27D V29S A30G V31L A32V S33D A36V T37E L40G: Gaussia luciferase mutant (protein, SIGNAL (1)..(17), Gaussia luciferase mutant) MGVKVLFALICIAVAEAKPTENNEDIDISGLVDNFVETDGDADRGKLPGKKLPLEVLKEMEANARKAGCTRGCLICLSHIKCTPKMKKFIPGRCHTYEGDKESAQGGIGEAIVDIPEIPGFKDLEPMEQFIAQVDLCVDCTTGCLKGLANVQCSDLLKKWLPQRCATFASKIQGQVDKIKGAGGD please
A) 2.094

Q) Do the same for H79K P84L S103T A104G E110A: Gaussia luciferase mutant (protein, SIGNAL (1)..(17), Gaussia luciferase mutant) MGVKVLFALICIAVAEAKPTENNEDFNIVAVASNFATTDLDADRGKLPGKKLPLEVLKEMEANARKAGCTRGCLICLSKIKCTLKMKKFIPGRCHTYEGDKETGQGGIGAAIVDIPEIPGFKDLEPMEQFIAQVDLCVDCTTGCLKGLANVQCSDLLKKWLPQRCATFASKIQGQVDKIKGAGGD please
A) 0.064

Okay, next one:
Q) I am curious: what Activity of mutant relative to wild-type Gaussia luciferase without the signal peptide value has been reported for F26N V29S A30D S33D A36T T37A L40G: Gaussia luciferase mutant (protein, SIGNAL (1)..(17), Gaussia luciferase mutant) MGVKVLFALICIAVAEAKPTENNEDNNISDVADNFTATDGDADRGKLPGKKLPLEVLKEMEANARKAGCTRGCLICLSHIKCTPKMKKFIPGRCHTYEGDKESAQGGIGEAIVDIPEIPGFKDLEPMEQFIAQVDLCVDCTTGCLKGLANVQCSDLLKKWLPQRCATFASKIQGQVDKIKGAGGD ?
A) 0.106
